Consider the following binders; for each one, report its glycan array binding signal (z-score).
measurement.target: Man(a1-2)Man(a1-3)Man
experiment.notes: glycan array binding signal (z-score within array); higher = stronger binding
condition.description: glycan notation: IUPAC condensed, linker removed
This excerpt belongs to a sample that is enriched for the strongest signals.
One number for each entry.

binder	glycan array binding signal (z-score)
BIp1-His (Cryptococcus neoformans) (protein) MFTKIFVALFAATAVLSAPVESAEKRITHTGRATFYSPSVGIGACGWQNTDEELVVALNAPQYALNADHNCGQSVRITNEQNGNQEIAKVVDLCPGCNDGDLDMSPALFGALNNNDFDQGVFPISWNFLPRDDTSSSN	-0.136
CBM32-5 (Clostridium perfringens) (protein) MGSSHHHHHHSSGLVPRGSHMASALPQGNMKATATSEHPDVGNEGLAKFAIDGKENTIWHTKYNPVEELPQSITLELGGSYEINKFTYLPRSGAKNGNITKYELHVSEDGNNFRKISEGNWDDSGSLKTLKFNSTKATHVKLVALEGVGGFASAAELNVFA	-0.091

Note: attention shifts to another entry.
Form: binder = cupB6 (Pseudomonas aeruginosa), Q02SP7 (protein) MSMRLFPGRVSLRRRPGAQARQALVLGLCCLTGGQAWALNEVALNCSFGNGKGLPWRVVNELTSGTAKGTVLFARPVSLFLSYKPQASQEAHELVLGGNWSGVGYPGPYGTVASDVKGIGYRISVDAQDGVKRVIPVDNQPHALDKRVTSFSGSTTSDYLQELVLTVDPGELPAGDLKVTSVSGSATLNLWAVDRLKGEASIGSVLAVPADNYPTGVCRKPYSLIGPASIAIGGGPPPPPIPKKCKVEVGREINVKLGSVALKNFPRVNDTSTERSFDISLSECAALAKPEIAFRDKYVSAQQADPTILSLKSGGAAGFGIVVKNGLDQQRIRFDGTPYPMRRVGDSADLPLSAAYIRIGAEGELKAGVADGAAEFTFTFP ; glycan array binding signal (z-score) = 0.328

Data credit: the supplement of paper PMC8728848
